Molecular target: T1, 4H906-AA
T1 chain: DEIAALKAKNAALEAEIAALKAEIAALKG
Assay: two-hybrid library CCmax;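 also: natural log of median RNA to DNA barcode read ratio; higher means stronger binding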
Details: mean of both orientations
value type: interaction score

These solved cases illustrate the format of a correct answer.
{"binder": "DEIAALKAENAALEAKIAALEAKIAALKG [4H678-AA]", "interaction score": -0.716}
{"binder": "DKNAALEAEIAALEAKIAALEAKNAALKG [4H3112-AA]", "interaction score": -1.29}
{"binder": "DKIAALEAENAALKAKIAALEAKIAALEG [4H2277-AA]", "interaction score": -1.51}
{"binder": "DKIAALKAEIAALKAENAALEAEIAALKG [4H2642-AA]", "interaction score": -1.72}
{"binder": "DKIAALEAKIAALEAKNAALEAEIAALKG [4H2354-AA]", "interaction score": -1.21}

(1) DKIAALKAKNAALEAEIAALEAKIAALEG [4H2949-AA]
(2) DENAALKAKIAALKAEIAALKAENAALEG [4H1867-AA]
[ask] 1 or 2 : whose interaction score is greater? Indicate your choice by writing its label.
[reply] 1
(1: -1.01, 2: -1.71)

(A) DKNAALEAKIAALKAKIAALEAENAALEG [4H3427-AA]
(B) DKIAALKAKIAALEAENAALEAKIAALEG [4H2837-AA]
(C) DKIAALEAENAALEAEIAALKAKIAALKG [4H2190-AA]
(D) DKIAALKAENAALKAEIAALEAEIAALKG [4H2754-AA]
[ask] Order the records so the highest interaction score appears first and the lowest last. A ranking is expressed here by listing the labels in the requested order.
[reply] C, D, B, A
